Recorded area under dose-response curve for the following compounds
System: HL-60
Experiment: area under dose-response curve (viability, 1 nM-10 uM) (fraction (0-1)); higher = more sensitive
Conditions: 72 h; co-treatment: AZD3965 100 nM
Just the number, please.

INPUT: What value of measured area under dose-response curve is listed for "O=C(Cc1cccc(OC(F)(F)F)c1)Nc1ccc(CCCCc2nnc(NC(=O)Cc3ccccn3)s2)nn1" ?
OUTPUT: 0.0553

Continuing:
INPUT: What value of area under dose-response curve has been recorded for this entry: "Clc1cc(Cl)c(OCC#CI)cc1Cl"
OUTPUT: 0.125

---

Readings of cell viability for the listed compounds
Test system: HL-60
Experiment: cell viability (% survival relative to DMSO control); higher = less cytotoxic
Conditions: 1 µM; 72 h; co-treatment: DMSO vehicle
All answers are understood in %, so give the number only.

INPUT: Which cell viability reading was recorded for the compound CNC(=C[N+](=O)[O-])NCCSCc1ccc(CN(C)C)o1 [Ranitidine] ?
OUTPUT: 106

INPUT: Next up: CCCCCCCNC=O [N-Heptyl-Formamide]
OUTPUT: 97.7

INPUT: // same read-out, input: Oc1ncc(F)c(O)n1 [5-fluorouracil]
OUTPUT: 102

INPUT: Entry to check: N#Cc1ccc(C2CCCc3cncn32)cc1 (centres undefined) [Fadrozole]
OUTPUT: 100

INPUT: "O=C(c1c2ccccc2cc2ccccc12)N1CCC(N2CCC[C@@H](C(=O)N3CCOCC3)C2)CC1" , same question.
OUTPUT: 101

INPUT: Then this compound: COc1ccc2c(c1)c(CC(=O)O)c(C)n2C(=O)c1ccc(Cl)cc1 [Indomethacine]
OUTPUT: 101

INPUT: Try this compound too: NS(=O)(=O)c1ccc(NC(=O)Cc2ccccc2)cc1 [4-(2-Phenylacetamido)Benzenesulfonamide]
OUTPUT: 100

INPUT: For N=C(N)c1ccc(N=NNc2ccc(C(=N)N)cc2)cc1 [Diminazene] then?
OUTPUT: 101

INPUT: Next entry: Cl.OC[C@H]1NC[C@H](O)[C@@H](O)[C@H]1O [Migalastat]
OUTPUT: 100
